Give MIC for every item shown.
tested on: Cunninghamella bertholletiae; assay: Antifungal activity against Cunninghamella bertholletiae UTHSC 04-2581 after 24 hrs by broth microdilution method; format: functional; settings: UTHSC 04-2581, 24 h
Give bare numbers, in µg/mL.

C[C@@H](c1ncncc1F)[C@](O)(Cn1cncn1)c1ccc(F)cc1F = 16

Please state, for each entry, its recorded MIC.
1. CN(C/C=C/C#CC(C)(C)C)Cc1cccc2ccccc12
2. CCC(C)n1ncn(-c2ccc(N3CCN(c4ccc(OCC5COC(Cn6cncn6)(c6ccc(Cl)cc6Cl)O5)cc4)CC3)cc2)c1=O (stereo not drawn)

Response:
1: 0.03; 2: 1
